Documented chromatographic logP across a set of compounds
Assay: Log P by HPLC on reversed phase columns (EEC directive 79/831 Annex V.A8; methods [a], [b], [c])
Type: physicochemical
Conditions: reversed phase HPLC column; method [a]: LC-UV, acidic range, 0.1% formic acid in water and acetonitrile as eluent (linear gradient from 10% to 95% acetonitrile)
Description: Measurement of Log P values was performed according to EEC directive 79/831 Annex V.A8 by HPLC (High Performance Liquid Chromatography) on reversed phase columns with the following methods: • ^[a] Log P value is determined by measurement of LC-UV, in an acidic range, with 0.1% formic acid in water and acetonitrile as eluent (linear gradient from 10% acetonitrile to 95% acetonitrile). • ^[b] […]
Give the value as a plain number.

These recorded examples may help you get a feel for the data.
O=C(Cn1cncc1Cl)c1ccc(Oc2ccc(Cl)cc2)cc1C(F)F    3.02
O=C(Cn1cncc1Cl)c1ccc(Oc2ccc(I)cc2)cc1Cl    3.41
O=C(Cn1cncc1Cl)c1ccc(Oc2ccc(I)cc2)cc1F    3.19

Fill blank: measured chromatographic logP of the compound N#Cc1cncn1CC(=O)c1ccc(Oc2ccc(Br)cc2)nc1C(F)(F)F is ____.
3.39

Fill blank: measured chromatographic logP of the compound N#Cc1cncn1CC(=O)c1ccc(Oc2ccc(Cl)cc2)nc1C(F)(F)F is ____.
3.33

Fill blank: measured chromatographic logP of the compound N#Cc1cncn1CC(=O)c1cnc(Oc2ccc(C(F)(F)F)nc2)cc1C(F)(F)F is ____.
2.82

Fill blank: measured chromatographic logP of the compound N#Cc1cncn1CC(=O)c1ccc(Oc2ccc(C(F)(F)F)cc2)nc1C(F)(F)F is ____.
3.35
